// provenance: paper PMC9458935

subject.of.test: hCB1R (Homo sapiens, UniProt P21554)
Sequence (P21554 whole entry): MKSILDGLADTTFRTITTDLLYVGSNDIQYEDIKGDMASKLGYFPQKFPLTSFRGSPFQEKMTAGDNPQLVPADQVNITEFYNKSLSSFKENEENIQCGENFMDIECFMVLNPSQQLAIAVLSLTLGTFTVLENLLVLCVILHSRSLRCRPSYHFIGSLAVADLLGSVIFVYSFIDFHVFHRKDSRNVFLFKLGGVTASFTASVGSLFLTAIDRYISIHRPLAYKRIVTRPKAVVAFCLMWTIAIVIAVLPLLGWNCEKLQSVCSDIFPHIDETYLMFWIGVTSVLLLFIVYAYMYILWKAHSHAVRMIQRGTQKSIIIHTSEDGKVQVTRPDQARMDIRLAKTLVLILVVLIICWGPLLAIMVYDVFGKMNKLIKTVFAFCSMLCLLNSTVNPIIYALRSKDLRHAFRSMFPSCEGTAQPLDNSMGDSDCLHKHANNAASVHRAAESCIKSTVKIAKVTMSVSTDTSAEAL
assay.details: cell-based
Type: cell-based
condition.info: CHO-K1; read-out: βarrestin2 recruitment Emax
measure.name: Emax (%)
Answer with a number only, understood to be in %.

Lookup: Quick one: Emax of O=C(/C=C/C=C/c1ccc2c(c1)OCO2)N1CCCCC1 [Piperine, piperine] ?
Found: 7.9

Lookup: Another: CCCCCc1cc(O)cc(O)c1 [Olivetol, olivetol]
Found: 8.3

Lookup: Another: O=C(O[C@@H]1Cc2c(O)cc(O)cc2O[C@@H]1c1cc(O)c(O)c(O)c1)c1cc(O)c(O)c(O)c1 [Egc G, epigallocatechin gallate]
Found: 7.2

Lookup: Another: COc1cc(/C=C/C(=O)CC(=O)/C=C/c2ccc(O)c(OC)c2)ccc1O [Curcumin, curcumin]
Found: 8.9
